Tested on: Enterococcus faecalis
Assay: Antimicrobial activity against vancomycin-resistant Enterococcus faecalis 1528 by micro-broth dilution method
Type: functional
MIC for assorted molecules
Write the answer as a number in µg/mL, unit excluded.

Recorded results for 3 molecules are shown here.
{"columns": ["molecule", "MIC (µg/mL)"],
 "data": [
  ["O=C(O)c1cn(C2CC2)c2cc(N3CCNCC3)c(F)cc2c1=O [CIPROFLOXACIN]", 0.8],
  ["CC(C)(O)[C@@H]1CC2=C(O1)C(=O)c1ccccc1C2=O [STENOCARPOQUINONE B]", 25],
  ["CC(C)(O)c1cc2c(o1)C(=O)c1ccccc1C2=O [AVICEQUINONE C]", 50]
]}

// molecule CC(C)(O)[C@H]1OC2=C(C(=O)c3ccccc3C2=O)[C@@H]1O [AVICEQUINONE A] , assay Enterococcus faecalis, MIC value: 50

###

CC50 for assorted molecules
System: HeLa
Experiment: Cytotoxicity against human HeLa cells
Type: functional
Write the answer as a number in µg/mL, unit excluded.

In plain terms, CC(C)(O)c1cc2c(o1)C(=O)c1ccccc1C2=O has a documented CC50 of 3.2

In plain terms, CC(=O)O[C@H]1C(=O)[C@@]2(C)[C@H]([C@H](OC(=O)c3ccccc3)[C@]3(O)C[C@H](OC(=O)[C@H](O)[C@@H](NC(=O)c4ccccc4)c4ccccc4)C(C)=C1C3(C)C)[C@]1(OC(C)=O)CO[C@@H]1C[C@@H]2O has a documented CC50 of 0.01

In plain terms, CC(C)(O)[C@@H]1CC2=C(O1)C(=O)c1ccccc1C2=O has a documented CC50 of 4.3

###

System: L929
Assay: Antiproliferative activity against mouse L929 cells
Assay type: functional
GI50 for assorted compounds
Write the answer as a number in µg/mL, unit excluded.

Recorded results for 2 compounds are shown here.
{"columns": ["compound", "measurement-target", "measurement-name", "experimental-value"],
 "data": [
  ["CC(C)(O)c1cc2c(o1)C(=O)c1ccccc1C2=O [AVICEQUINONE C]", "L929", "GI50", 0.8],
  ["CC(C)(O)[C@@H]1CC2=C(O1)C(=O)c1ccccc1C2=O [STENOCARPOQUINONE B]", "L929", "GI50", 1.2]
]}

Now for a further compound.
In plain terms, CC(=O)O[C@H]1C(=O)[C@@]2(C)[C@H]([C@H](OC(=O)c3ccccc3)[C@]3(O)C[C@H](OC(=O)[C@H](O)[C@@H](NC(=O)c4ccccc4)c4ccccc4)C(C)=C1C3(C)C)[C@]1(OC(C)=O)CO[C@@H]1C[C@@H]2O [PACLITAXEL] has a documented GI50 of 0.1

###

Test system: Staphylococcus aureus
Test: Antimicrobial activity against methicillin-resistant Staphylococcus aureus 134/93 by micro-broth dilution method
Assay type: functional
MIC for assorted compounds

Recorded results for 3 compounds are shown here.
{"columns": ["given-smiles", "measurement-target", "MIC"],
 "data": [
  ["CC(C)(O)[C@H]1OC2=C(C(=O)c3ccccc3C2=O)[C@@H]1O", "Staphylococcus aureus", "6.25 µg/mL"],
  ["CC(C)(O)c1cc2c(o1)C(=O)c1ccccc1C2=O", "Staphylococcus aureus", "6.25 µg/mL"],
  ["O=C(O)c1cn(C2CC2)c2cc(N3CCNCC3)c(F)cc2c1=O", "Staphylococcus aureus", "12.5 µg/mL"]
]}

In plain terms, CC(C)(O)[C@@H]1CC2=C(O1)C(=O)c1ccccc1C2=O has a documented MIC of 12.5 µg/mL
